Experiment: Pharmacokinetic study in male ICR mice
Type: in vivo, mouse
Conditions: male, ICR, mouse, plasma, iv, 2 mg/kg, male ICR mice, 2 mg/kg IV, individual animals (Mouse 1-3); read-out: MRT(0-t)
attribute.measured: MRT last (min)
One number for each entry, in min.

Dear colleague, please send me the reported MRT last for CC1(C)CCC(c2ccc(Cl)cc2)=C(CN2CCN(c3ccc(C(=O)NS(=O)(=O)c4ccc(NCCCN5CCN(CCCC#Cc6cccc7c6CN(C6CCC(=O)NC6=O)C7=O)CC5)c(S(=O)(=O)C(F)(F)F)c4)cc3)CC2)C1 (stereo not shown) [SIAIS361034] when you can.
13.2

###

Assay: Pharmacokinetic study in male ICR mice
Assay type: in vivo, mouse
Conditions: male, ICR, mouse, plasma, iv, 2 mg/kg, male ICR mice, 2 mg/kg IV, mean of 3 animals; read-out: MRT(0-t)
attribute.measured: MRT last

Dear colleague, please send me the reported MRT last for CC1(C)CCC(c2ccc(Cl)cc2)=C(CN2CCN(c3ccc(C(=O)NS(=O)(=O)c4ccc(NCCCN5CCN(CCCC#Cc6cccc7c6CN(C6CCC(=O)NC6=O)C7=O)CC5)c(S(=O)(=O)C(F)(F)F)c4)cc3)CC2)C1 (stereo not shown) [SIAIS361034] when you can.
16.8 min

###

Assay: Pharmacokinetic study in male ICR mice
Type: in vivo, mouse
Settings: male, ICR, mouse, plasma, ip, 10 mg/kg, male ICR mice, 10 mg/kg IP, mean of 3 animals; read-out: MRT(0-t)
Method: Standard pharmacokinetic (PK) studies were conducted using male ICR Mice. A single 2 mg/kg intravenous (i.v.) injection, 10 mg/kg intraperitoneal (i.p.) injection or 10 mg/kg oral (p.o.) administration of SIAIS361034 was evaluated. Plasma concentrations of SIAIS361034 at each of the 7 time points (0.25 h, 0.5 h, 1 h, 2 h, 4 h, 8 h, and 24 h post dosing) are the average values from 3 animals.
attribute.measured: MRT last

Dear colleague, please send me the reported MRT last for CC1(C)CCC(c2ccc(Cl)cc2)=C(CN2CCN(c3ccc(C(=O)NS(=O)(=O)c4ccc(NCCCN5CCN(CCCC#Cc6cccc7c6CN(C6CCC(=O)NC6=O)C7=O)CC5)c(S(=O)(=O)C(F)(F)F)c4)cc3)CC2)C1 (stereo not shown) [SIAIS361034] when you can.
4.41 h

###

Assay: Pharmacokinetic study in male ICR mice
Format: in vivo, mouse
Details: male, ICR, mouse, plasma, iv, 2 mg/kg, male ICR mice, 2 mg/kg IV, mean of 3 animals
attribute.measured: clearance (mL/min/kg)
Answers are plain numbers, in mL/min/kg.

Dear colleague, please send me the reported clearance for CC1(C)CCC(c2ccc(Cl)cc2)=C(CN2CCN(c3ccc(C(=O)NS(=O)(=O)c4ccc(NCCCN5CCN(CCCC#Cc6cccc7c6CN(C6CCC(=O)NC6=O)C7=O)CC5)c(S(=O)(=O)C(F)(F)F)c4)cc3)CC2)C1 (stereo not shown) [SIAIS361034] when you can.
7.83

###

Experiment: Pharmacokinetic study in male ICR mice
Type: in vivo, mouse
Conditions: male, ICR, mouse, plasma, iv, 2 mg/kg, male ICR mice, 2 mg/kg IV, mean of 3 animals; read-out: Vss
attribute.measured: Vd
Please format your answer as a value with the unit trailing.

Dear colleague, please send me the reported Vd for CC1(C)CCC(c2ccc(Cl)cc2)=C(CN2CCN(c3ccc(C(=O)NS(=O)(=O)c4ccc(NCCCN5CCN(CCCC#Cc6cccc7c6CN(C6CCC(=O)NC6=O)C7=O)CC5)c(S(=O)(=O)C(F)(F)F)c4)cc3)CC2)C1 (stereo not shown) when you can.
0.162 L/kg
